# assayed-system: full-length beta-Catenin (Uniprot ID P35222) (Homo sapiens (Human)) (UniProt P35222)
# Sequence (P35222 2-781 limits assumed): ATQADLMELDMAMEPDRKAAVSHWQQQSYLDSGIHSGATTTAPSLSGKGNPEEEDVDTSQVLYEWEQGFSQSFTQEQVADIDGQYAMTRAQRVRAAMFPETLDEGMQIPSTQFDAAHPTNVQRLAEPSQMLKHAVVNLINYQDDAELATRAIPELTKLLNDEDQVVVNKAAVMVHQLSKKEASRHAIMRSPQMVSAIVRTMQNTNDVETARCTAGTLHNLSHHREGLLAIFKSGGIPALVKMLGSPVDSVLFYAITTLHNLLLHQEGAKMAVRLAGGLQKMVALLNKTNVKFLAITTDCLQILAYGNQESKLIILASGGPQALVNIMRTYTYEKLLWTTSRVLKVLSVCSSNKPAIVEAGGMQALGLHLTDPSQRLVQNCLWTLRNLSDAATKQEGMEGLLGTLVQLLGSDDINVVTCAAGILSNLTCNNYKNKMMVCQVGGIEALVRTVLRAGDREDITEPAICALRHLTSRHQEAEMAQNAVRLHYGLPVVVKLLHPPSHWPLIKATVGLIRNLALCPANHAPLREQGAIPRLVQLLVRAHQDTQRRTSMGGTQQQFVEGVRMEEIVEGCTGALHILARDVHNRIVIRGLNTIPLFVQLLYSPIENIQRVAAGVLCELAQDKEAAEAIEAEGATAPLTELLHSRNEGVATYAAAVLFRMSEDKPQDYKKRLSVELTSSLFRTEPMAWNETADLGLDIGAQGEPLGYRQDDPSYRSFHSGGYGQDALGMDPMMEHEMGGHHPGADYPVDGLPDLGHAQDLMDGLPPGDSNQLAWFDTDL
# measurement-protocol: fluorescence polarization competition: peptide titrated against 10 nM full-length beta-catenin + 10 nM 5FAM-TCF4(10-53) probe
Starred links: 1 amine or outer side, 2 acyl side, 3 side chain; linkers in the order of their positions; H or OH if unused. Positions of bridges follow the written chain, without caps; N, C: chain ends. Non-standard residues stand in square brackets, D forms with d. Primed or numbered codes have the meaning given here. B5(5) = 2,2-bis(4-pentenyl)glycine, 2-amino-2-(pent-4-en-1-yl)hept-6-enoic acid (stitching residue), C=CCCCC(CCCC=C)(N[*:1])C(=O)[*:2]; PyrS2 = (S)-3-amino-1-((pent-4-en-1-yloxy)carbonyl)pyrrolidine-3-carboxylic acid, C=CCCCOC(=O)N1CC[C@@](N[*:1])(C(=O)[*:2])C1; B5 = 2-amino-2-(pent-4-en-1-yl)hept-6-enoic acid, C=CCCCC(CCCC=C)(N[*:1])C(=O)[*:2]; Trp(6-Cl) = N[C@@H](Cc1c[nH]c2cc(Cl)ccc12)C(=O)O; 1Nal = N[C@@H](Cc1cccc2ccccc12)C(=O)O; Bta = N[C@@H](Cc1csc2ccccc12)C(=O)O; αAllylPro = C=CC[C@@]1(C(=O)O)CCCN1; tBuAla = CC(C)(C)C[C@H](N)C(=O)O; 3Thi = N[C@@H](Cc1ccsc1)C(=O)O; hLeu = CC(C)CC[C@H](N)C(=O)O
Provide the recorded EC50 for the entries that follow.
Give bare numbers, in nM.

Please review the following examples before continuing.
| binder | u | EC50 |
| --- | --- | --- |
| Ac-[αAllylPro]D[tBuAla][B5]DDAAFN[PyrS2][3Thi][Trp(6-Cl)]H-NH2 (staple 1-4, 4-11) [I-798] | nM | 106 |
| Ac-[αAllylPro]D[hLeu][B5(5)]DDAAFN[PyrS2][3Thi][Bta]H-NH2 (staple 1-4, 4-11) [I-788] | nM | 5 |
| Ac-[αAllylPro]D[tBuAla][B5(5)]DDAAFN[PyrS2][3Thi][1Nal]H-NH2 (staple 1-4, 4-11) [I-789] | nM | 19 |
| Ac-[αAllylPro]D[tBuAla][B5(5)]DDAAFN[PyrS2][3Thi][Bta]-NH2 (staple 1-4, 4-11) [I-785] | nM | 6 |

Turning now to a further binder:
Prompt: Supply reported EC50 belonging to this binder: Ac-[αAllylPro]D[tBuAla][B5]DDAAFN[PyrS2][1Nal][Bta]H-NH2 (staple 1-4, 4-11) [I-794]
Completion: 19
